Source listed as patent US20170298096A1.

Exercise: for every item that follows, state its recorded RAMPO Score.
# system-tested: T1, His-tagged P3028 (human, also: His-tag, terminus and sequence not given here)
# T1 construct: in solution at 0.5 ug/mL over the peptide cards; found with anti-His-tag antibody and rabbit anti-mouse peroxidase (rampo); also called PGE73; not shown: His-tag
# T1 peptide: VFDEFKPLVEEPQNLIK
# assay-protocol: PEPSCAN chip ELISA, His-P3028 in solution;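 note: score is the raw OD at 405 nm from peroxidase colour with ABTS, imaged by CCD camera before and after staining, with wells showing air bubbles set to zero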
No end group written: not given here.
Numbers only, in rampo score.

What value of RAMPO Score has been reported for the following binder? KKLDTFFVKFSLFTER [SEQ ID NO 333]
403

Which measured RAMPO Score value corresponds to KKLDTFFVKLPLFTER [SEQ ID NO 470] ?
328

What measured RAMPO Score goes with MKLDTFFVKLSLFTER [SEQ ID NO 275] ?
457

Please report the recorded RAMPO Score for KKLDTFFVKLSLGTER [SEQ ID NO 28] .
531

Requested read-out: RAMPO Score. Entry: KKLDTFGVKLSLFTER [SEQ ID NO 96]
347

Answer for every listed entry: what is its RAMPO Score? The entries follow.
1. KKRDTFFVKLSLFTER [SEQ ID NO 294]
2. KKLDTAFVKLSLFTER [SEQ ID NO 313]

1: 370; 2: 575
